Target: T1, human CDH6 with EC5 removed, on HEK293T cells (HEK293T-hCDH6-EC5 deletion) (human, UniProt P55285 54-790)
T1 construct: Signal peptide not removed here
T1 sequence: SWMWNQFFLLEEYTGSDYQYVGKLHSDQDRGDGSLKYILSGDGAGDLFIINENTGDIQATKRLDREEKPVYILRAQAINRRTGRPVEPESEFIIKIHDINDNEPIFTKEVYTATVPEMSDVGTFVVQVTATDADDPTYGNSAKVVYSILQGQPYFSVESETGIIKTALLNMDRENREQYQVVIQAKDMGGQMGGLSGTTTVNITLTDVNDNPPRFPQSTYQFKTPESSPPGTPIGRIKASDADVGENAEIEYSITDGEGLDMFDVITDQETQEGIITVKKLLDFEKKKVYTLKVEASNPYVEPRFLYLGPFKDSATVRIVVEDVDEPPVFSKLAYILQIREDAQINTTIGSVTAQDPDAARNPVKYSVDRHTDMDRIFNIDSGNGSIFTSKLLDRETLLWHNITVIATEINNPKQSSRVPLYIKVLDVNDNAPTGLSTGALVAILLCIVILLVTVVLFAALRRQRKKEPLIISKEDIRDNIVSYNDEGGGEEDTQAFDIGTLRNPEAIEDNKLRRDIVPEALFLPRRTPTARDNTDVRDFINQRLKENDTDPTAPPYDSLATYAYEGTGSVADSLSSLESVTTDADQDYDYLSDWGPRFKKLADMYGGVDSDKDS
Test: FACS, HEK293T-hCDH6-EC5 deletion cells
Reported metric: Max MFI (MFI)

| Binder | Measured |
| --- | --- |
| CHI-CDH6-7 (antibody, human IgG1, kappa, V domains shown, also called CH1-CDH6-7; chimeric antibody of murine CDH6-7) VH: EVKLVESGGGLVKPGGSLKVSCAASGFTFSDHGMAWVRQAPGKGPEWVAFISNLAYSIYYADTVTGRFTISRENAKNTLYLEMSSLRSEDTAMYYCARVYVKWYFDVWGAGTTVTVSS VL: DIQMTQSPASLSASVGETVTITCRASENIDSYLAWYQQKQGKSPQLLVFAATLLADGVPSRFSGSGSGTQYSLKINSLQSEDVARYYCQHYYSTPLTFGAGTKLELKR | 1020 |
| CHI-CDH6-1 (antibody, human IgG1, kappa, V domains shown, also called CHI-hCDH6-1; CH1-CDH6-1) VH: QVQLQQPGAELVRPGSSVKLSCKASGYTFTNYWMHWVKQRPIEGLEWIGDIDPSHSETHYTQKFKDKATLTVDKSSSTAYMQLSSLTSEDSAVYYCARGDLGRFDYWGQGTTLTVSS VL: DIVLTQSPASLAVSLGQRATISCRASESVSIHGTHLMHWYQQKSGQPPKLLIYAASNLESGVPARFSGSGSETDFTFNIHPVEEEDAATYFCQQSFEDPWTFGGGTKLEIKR | 14300 |
| CHI-CDH6-3 (antibody, human IgG1, kappa, V domains shown, also called CH1-CDH6-3; chimeric antibody of murine CDH6-3) VH: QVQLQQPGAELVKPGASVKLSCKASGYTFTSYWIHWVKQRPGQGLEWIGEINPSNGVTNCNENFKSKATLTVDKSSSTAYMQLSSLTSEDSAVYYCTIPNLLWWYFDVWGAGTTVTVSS VL: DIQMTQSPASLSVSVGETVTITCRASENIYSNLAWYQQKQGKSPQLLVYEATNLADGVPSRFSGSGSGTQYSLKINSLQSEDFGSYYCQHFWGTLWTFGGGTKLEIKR | 5610 |
